Target: Cannabinoid receptor 1 (Homo sapiens, UniProt P21554)
Sequence (P21554 whole entry): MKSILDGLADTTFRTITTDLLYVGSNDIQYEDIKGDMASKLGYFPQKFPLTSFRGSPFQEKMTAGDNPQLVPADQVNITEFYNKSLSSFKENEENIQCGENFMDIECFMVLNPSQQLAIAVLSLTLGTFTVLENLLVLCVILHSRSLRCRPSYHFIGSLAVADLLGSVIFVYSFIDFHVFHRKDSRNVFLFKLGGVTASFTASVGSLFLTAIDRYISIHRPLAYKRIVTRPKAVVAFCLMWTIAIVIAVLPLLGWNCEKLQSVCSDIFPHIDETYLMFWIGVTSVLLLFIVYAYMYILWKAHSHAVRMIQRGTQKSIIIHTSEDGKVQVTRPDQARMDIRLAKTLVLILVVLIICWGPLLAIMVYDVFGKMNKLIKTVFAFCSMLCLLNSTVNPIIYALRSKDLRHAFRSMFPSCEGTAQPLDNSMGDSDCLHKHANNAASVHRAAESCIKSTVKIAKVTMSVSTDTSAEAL
Assay: Binding affinity against human cannabinoid receptor by using radioligand ([3H]CP-55940) assay.
So I've got a bunch of molecules here, and I need their pKi values.
Give bare numbers, as −log10 of the molar value.

Please give pKi, item by item, for the list that follows.
1. CCCCCCC(C)(C)c1cc(O)c2c(c1)OC(C)(C)[C@H]1CC=C(C=O)C[C@H]21
2. CCCCCCC(C)(C)c1cc(O)c([C@@H]2C=C(C)C3C[C@H]2C3(C)C)c(O)c1
3. CCCCCCC(C)(C)c1cc(O)c2c(c1)OC(C)(C)[C@@H]1CC=C(C=O)C[C@@H]21
4. CCCCCCC(C)(C)c1ccc2c(c1)OC(C)(C)[C@@H]1CC=C(C)C[C@@H]21
5. CCCCCCC(C)(C)c1ccc(-c2cc(C)cc(C)c2)c(O)c1

Output:
1: 7.01; 2: 6.46; 3: 8.65; 4: 6.60; 5: 7.90

I'm hoping you can list pKi for every molecule here, please.
1. CCCCCCC(C)(C)c1cc(O)c(-c2cc(C)cc(C)c2)c(O)c1
2. C=C1CC[C@@H]2[C@@H](C1)c1c(O)cc(C(C)(C)CCCCCC)cc1OC2(C)C

Output:
7.10
8.74
